Test target: AKT1 E17K (Homo sapiens (Human), UniProt P31749, E17K)
Sequence (P31749 whole entry E17K): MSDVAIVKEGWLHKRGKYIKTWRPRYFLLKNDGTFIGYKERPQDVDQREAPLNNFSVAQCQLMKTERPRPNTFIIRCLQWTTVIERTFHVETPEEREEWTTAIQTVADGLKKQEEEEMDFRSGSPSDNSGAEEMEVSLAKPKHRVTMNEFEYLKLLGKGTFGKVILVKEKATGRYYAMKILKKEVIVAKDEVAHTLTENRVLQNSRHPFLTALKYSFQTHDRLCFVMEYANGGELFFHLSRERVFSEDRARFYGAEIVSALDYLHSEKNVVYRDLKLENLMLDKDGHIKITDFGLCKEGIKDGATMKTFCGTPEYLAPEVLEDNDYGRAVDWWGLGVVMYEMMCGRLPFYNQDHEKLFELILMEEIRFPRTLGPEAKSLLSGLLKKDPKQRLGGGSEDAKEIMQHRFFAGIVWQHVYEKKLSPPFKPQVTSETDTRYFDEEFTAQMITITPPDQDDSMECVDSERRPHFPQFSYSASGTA
Method summary: Live cell target engagement (NanoBRET) in HEK293 cells
Type: cell-based
The molecules listed here are annotated with their AKT1 E17K IC50: Selectivity vs AKT1 WT.
Give the figure only, with no unit attached.

Record excerpt, results attached:
Query: What does the data say about its AKT1 E17K IC50: Selectivity vs AKT1 WT? Entry: Nc1ncccc1-c1nc2cccnc2n1-c1ccc(CNC(=O)Cc2ccc(C=O)c(NC(=O)C3CC3)c2)cc1 [Compound 48]
Reply: 8.5

Query: What does the data say about its AKT1 E17K IC50: Selectivity vs AKT1 WT? Entry: Nc1ncccc1-c1nc2ccc(-c3ccc(N4CCOCC4)cc3)nc2n1-c1ccc(CNC(=O)Cc2ccc(C=O)c(O)c2)cc1 [Example 1]
Reply: 6.1

Query: What does the data say about its AKT1 E17K IC50: Selectivity vs AKT1 WT? Entry: Nc1ncccc1-c1nc2ccc(-c3ccccc3)nc2n1-c1ccc(CNc2cc(-c3ccc(O)c(C=O)c3)ccn2)cc1 [Compound 81]
Reply: 0.51

Query: What does the data say about its AKT1 E17K IC50: Selectivity vs AKT1 WT? Entry: CN(Cc1ccc(-n2c(-c3cccnc3N)nc3ccc(-c4ccccc4)nc32)cc1)C(=O)Cc1ccc(C=O)c(O)c1 [Compound 64]
Reply: 0.5

Query: What does the data say about its AKT1 E17K IC50: Selectivity vs AKT1 WT? Entry: CC(=O)Nc1cccc(-c2ccc3nc(-c4cccnc4N)n(-c4ccc(CNCCc5ccc(C=O)c(O)c5)cc4)c3n2)c1 [Compound 121]
Reply: 2

***
Query: What does the data say about its AKT1 E17K IC50: Selectivity vs AKT1 WT? Entry: Nc1ncccc1-c1nc2ccc(C3CC3)nc2n1-c1ccc(CNC(=O)c2ccc(O)c(C=O)c2)cc1 [Compound 27]
Reply: 3.8

Query: What does the data say about its AKT1 E17K IC50: Selectivity vs AKT1 WT? Entry: Nc1ncccc1-c1nc2ccc(-c3ccccc3)nc2n1-c1ccc(CCNCc2ccc(C=O)c(O)c2F)cc1 [Compound 40]
Reply: 2.2

Source listed as patent US20250115600A1.
